# Experimental Target: Androgen Receptor (Homo sapiens, UniProt P10275)
# Construct: endogenous in cells; host or cells: VCaP cells
# Sequence (P10275 whole entry): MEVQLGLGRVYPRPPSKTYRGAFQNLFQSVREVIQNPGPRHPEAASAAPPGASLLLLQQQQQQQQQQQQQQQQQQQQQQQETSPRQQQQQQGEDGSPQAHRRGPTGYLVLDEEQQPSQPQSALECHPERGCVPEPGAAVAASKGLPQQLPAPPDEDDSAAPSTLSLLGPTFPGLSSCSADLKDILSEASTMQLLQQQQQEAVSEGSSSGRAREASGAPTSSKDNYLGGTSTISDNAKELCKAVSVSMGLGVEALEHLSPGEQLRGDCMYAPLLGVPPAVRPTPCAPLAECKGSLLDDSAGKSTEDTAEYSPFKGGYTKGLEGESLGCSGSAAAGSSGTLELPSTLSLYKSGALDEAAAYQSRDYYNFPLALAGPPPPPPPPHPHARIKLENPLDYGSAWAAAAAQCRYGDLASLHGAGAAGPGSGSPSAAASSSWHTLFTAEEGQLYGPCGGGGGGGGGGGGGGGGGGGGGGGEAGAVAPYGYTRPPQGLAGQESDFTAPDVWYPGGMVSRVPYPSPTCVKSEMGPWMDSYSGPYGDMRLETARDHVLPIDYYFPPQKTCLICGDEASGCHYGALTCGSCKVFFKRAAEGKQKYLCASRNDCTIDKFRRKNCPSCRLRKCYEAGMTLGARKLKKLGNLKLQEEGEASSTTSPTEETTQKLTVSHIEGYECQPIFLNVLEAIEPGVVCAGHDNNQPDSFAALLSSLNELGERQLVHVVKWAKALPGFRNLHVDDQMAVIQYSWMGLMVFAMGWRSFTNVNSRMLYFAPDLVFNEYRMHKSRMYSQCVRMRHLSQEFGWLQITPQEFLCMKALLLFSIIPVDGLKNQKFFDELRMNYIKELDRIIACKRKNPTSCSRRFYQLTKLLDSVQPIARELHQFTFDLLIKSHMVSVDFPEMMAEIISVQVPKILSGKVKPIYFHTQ
# Assay Notes: Androgen Receptor ELISA assay (PathScan AR ELISA) in VCaP cells: AR degradation, Dmax and DC50
# Assay type: cell-based
# Assay Context: VCaP, VCaP cells; Table 35; read-out: VCaP Dmax (%)
Measured Dmax, listed per entry for reference.

Here's what some known entries look like.
Cc1ncsc1-c1ccc([C@H](CN)NC(=O)[C@@H]2C[C@@H](O)CN2C(=O)[C@@H](NC(=O)COCCCCCOc2ccc(C(=O)N[C@H]3C(C)(C)[C@H](Oc4ccc(C#N)c(Cl)c4)C3(C)C)cc2)C(C)(C)C)cc1; > 71%
Cc1ncsc1-c1ccc(CNC(=O)[C@@H]2C[C@@H](O)CN2C(=O)[C@@H](NC(=O)COC[C@H](O)[C@@H](O)COc2ccc(C(=O)N[C@H]3C(C)(C)[C@H](Oc4ccc(C#N)c(Cl)c4)C3(C)C)cc2)C(C)(C)C)cc1; > 71%
C[C@H](NC(=O)[C@@H]1C[C@@H](O)CN1C(=O)[C@@H](NC(=O)COCCCCOc1ccc(C(=O)N[C@H]2C(C)(C)[C@H](Oc3ccc(C#N)c(Cl)c3)C2(C)C)cc1)C(C)(C)C)c1ccc(C#N)cc1; 51 to 70%
C[C@H](NC(=O)[C@@H]1C[C@@H](O)CN1C(=O)[C@@H](NC(=O)COCCCCCNc1ccc(C(=O)N[C@H]2C(C)(C)[C@H](Oc3ccc(C#N)c(Cl)c3)C2(C)C)cc1)C(C)(C)C)c1ccc(-c2c[nH]nn2)cc1; > 71%
CNCC(NC(=O)[C@@H]1C[C@@H](O)CN1C(=O)[C@@H](NC(=O)COCCCCCOc1ccc(C(=O)N[C@H]2C(C)(C)[C@H](Oc3ccc(C#N)c(Cl)c3)C2(C)C)cc1)C(C)(C)C)c1ccc(-c2scnc2C)cc1 (some centres unmarked); > 71%

Q: Indicate its recorded Dmax; the molecule in question is CC(C)(C)[C@H](NC(=O)COCCCCCNc1ccc(C(=O)N[C@H]2C(C)(C)[C@H](Oc3ccc(C#N)c(Cl)c3)C2(C)C)cc1)C(=O)N1C[C@H](O)C[C@H]1C(=O)NCc1ccc(-c2cnccn2)cc1
Result: 51 to 70%

Q: Give Dmax for Cc1ncsc1-c1ccc(CNC(=O)[C@@H]2C[C@@H](O)CN2C(=O)[C@@H](NC(=O)COC[C@H]2C[C@H](Oc3ccc(C(=O)N[C@H]4C(C)(C)[C@H](Oc5ccc(C#N)c(Cl)c5)C4(C)C)cc3)C2)C(C)(C)C)cc1
Result: > 71%

Q: Read off the recorded Dmax for Cc1ncsc1-c1ccc([C@H](C)NC(=O)[C@@H]2C[C@@H](O)CN2C(=O)[C@@H](NC(=O)COCCCCCNc2ccc(C(=O)N[C@H]3C(C)(C)[C@H](Oc4ccc(C#N)c(C(F)(F)F)n4)C3(C)C)cc2)C(C)(C)C)cc1
Result: > 71%

Q: Please look at this molecule and report its Dmax: Cc1ncsc1-c1ccc([C@H](C)NC(=O)[C@@H]2C[C@@H](O)CN2C(=O)[C@H](NC(=O)COCCCCCNc2ccc(C(=O)N[C@H]3C(C)(C)[C@H](Oc4ccc(C#N)c(Cl)c4)C3(C)C)cc2)C(C)(C)C)cc1
Result: < 25%
